- Test system: MS2 coat protein
- assay.notes: apparent KD of MS2 coat protein; designed switch direction (-1 OFF switch, 1 ON switch): -1; higher = weaker reporter binding
- reported.conditions: input ligand: FMN 200 uM
Here the recorded apparent KD of MS2 coat protein is given for each entry.
measurement.label: apparent KD of MS2 coat protein (nM)

# sequence.string, measurement.label, measured.number
records = [
    ("AUUUUGUGAGGAUAUGUGGCUUCGAUCGUGAAAUCGAGGCUACAGAAGGCACAUGAGGAUCACCCAUGUUCCUA [salish99_ex4_r4_117] (Eterna round: R97, puzzle: Exclusion 4)", "apparent KD of MS2 coat protein", 178),
    ("UAAAUAAAUGUAGGAUAUCUGCACGAUUAGUGCAGAGAAGGACAUGAGGAUCACCCAUGUAUAGUAGCUUCGGCUACAAAUAAU [ENG1-C1] (Eterna round: R96, puzzle: Exclusion NG 1)", "apparent KD of MS2 coat protein", 89.9),
    ("GCUGGUCGAGGAUAUGCAUUCGUGCUUCGGCACGUAAGGUCACAUGAGGAUCACCCAUGUAGAAGGUGACCAGC [E2/6-B1] (Eterna round: R97, puzzle: Exclusion 2)", "apparent KD of MS2 coat protein", 23.9),
    ("UCUAUUUUGCGAGGAUAUCGACCAUUCCUCUUUACAUGAGGAUCACCCAUGUUCUUUUUCUACAACGAGAAGGCGCUCUAAGUU [JR_ExcNG2_Sub061] (Eterna round: R96, puzzle: Exclusion NG 2)", "apparent KD of MS2 coat protein", 71.9),
    ("AGGGACUAAGGAUAUACUUAGGAGAUAAACGACUGGUGAACACUUGAGGAUCACCCAAGUAGAAGGUAGUCAAA [Enonsoor] (Eterna round: R97, puzzle: Exclusion 2)", "apparent KD of MS2 coat protein", 135),
]

----------
Here the recorded apparent KD of MS2 coat protein is given for each entry.
- Test system: MS2 coat protein
- assay.notes: apparent KD of MS2 coat protein, switch OFF state (with FMN for OFF switches, without FMN for ON switches); designed switch direction (-1 OFF switch, 1 ON switch): -1; higher = weaker reporter binding
- reported.conditions: FMN input: 0 or 200 uM; Eterna round: R93 (includes R88 designs)
measurement.label: apparent KD of MS2 coat protein (nM)

# sequence.string, tgt, measured.number
records = [
    ("AAGAAACAUGAGGAUCACCCAUGUGAGGAUAUCCAAAAGAAAAGAAAAGAAAGAAGAAGGAGAAGGCACAAAGG [Nikare]", "MS2 coat protein", 159),
    ("AACAUGUCAGGAUAUGUGUAAAGAAUAAAAGAAAUAACAACACAGAAGGGACAUGAGGAUCACCCAUGUCAACA [May 32]", "MS2 coat protein", 29.3),
    ("AGGUGGUCAGGAUAUGCGUGAAGAAUAAAACAAAUAACAACGCAGAAGGGACAUGAGGAUCACCCAUGUCACCA [May 52]", "MS2 coat protein", 16.6),
    ("AGUUGGCGAGGAUAUACAUGAGGAUCACCCAUGUGAAAUAAUGAAAAAGUAGGGAAAAGUAGAAGGCGCUGACA [73%, Moding Norbert Elias, 20]", "MS2 coat protein", 143),
]

----------
- Test system: MS2 coat protein
- assay.notes: apparent KD of MS2 coat protein; designed switch direction (-1 OFF switch, 1 ON switch): -1; higher = weaker reporter binding
- reported.conditions: Eterna round: R95; input ligand: FMN 200 uM

# sequence.string, readout.units, apparent KD of MS2 coat protein
measured = [
    ("GUGGAGUAAGGAUAUACAUGAGGAUCACCCAUGUAAGGGAAGGUGAUGGGAGUAGAUAGUAGAAGGUACGAGGA [JR_Exclu3_Sub067] (puzzle: Exclusion 3)", "nM", 58.3),
    ("AGUACUAACACGUAAGUGUUAGUACAAUAAGCUUGUGAAACAUGAGGAUCACCCAUGUCCUCAUAAGCUCGUCUUAU [salish99_TOv2_r3_025] (puzzle: Sensor v3, turn-off variant 2)", "nM", 17.9),
    ("AAAAGCAAGCAAAGAUUCUACAUGAGGAUCACCCAUGUGCUCGUCUUAUAAAGUACUAUCACGAAAGUGAUAGUACA [Sensor 3, v1 - 42] (puzzle: Sensor v3, turn-off variant 1)", "nM", 26),
]

----------
Here the recorded apparent KD of MS2 coat protein is given for each entry.
- Test system: MS2 coat protein
- assay.notes: apparent KD of MS2 coat protein, switch ON state; designed switch direction (-1 OFF switch, 1 ON switch): -1; higher = weaker reporter binding
- reported.conditions: FMN input: 0 or 200 uM; Eterna round: R93 (includes R88 designs)
measurement.label: apparent KD of MS2 coat protein

# sequence.string, measurement.label, result
measured = [
    ("AGCUAGUCAGGAUAUACGAACAGGUCAAAAGACGUGAAGGGACAUGAGGAUCACCCAUGUAGAAGGGACUAGCA [Mat - Exclusion 2 - JL mod - D23]", "apparent KD of MS2 coat protein", "39.6 nM"),
    ("AAAAAGUGAGGAUAUCUGGAUAGGAAAAAGAAAACCUAUCCAGAGAAGGCACAUGAGGAUCACCCAUGUAAAAA [JL cataway mod 5]", "apparent KD of MS2 coat protein", "31.6 nM"),
    ("AAACCACAUGAGGAUCACCCAUGUCAGGAUAUGCUAUGGAAAAUAAAAAUAAAACAUAGCAGAAGGGACAAAAA [Denovo 6]", "apparent KD of MS2 coat protein", "37.2 nM"),
]

----------
Here the recorded apparent KD of MS2 coat protein is given for each entry.
- System: MS2 coat protein
- assay.notes: apparent KD of MS2 coat protein; higher = weaker reporter binding
- reported.conditions: Eterna round: R107; input ligand: tryptophan 2.4 mM

# sequence.string, tgt, readout.units, apparent KD of MS2 coat protein
data = [
    ("ACAUGAGGAUCACCCAUGUAAUGGCACGAUACCAGCUGAUCCCGUGGCCCUUGGCAGCGUCCGGUGUGGUCCGCCGGGUUGGACC [HHHMULLIN]", "MS2 coat protein", "nM", 36.2),
    ("AAUUCCUCACAUGAGGAUCACCCAUGUGAAGGAGCGCGGAAUAACGCAGGUAGGUCGCACAUGGAAACCGCUGCGAAAGCAGCAA [MAT - Exclusion Arginine A - Mod of Eli - D26]", "MS2 coat protein", "nM", 16.3),
    ("UAUCCACAUGAGGAUCACCCAUGUUAGGAAGGAGCGGUGAAUGAACCAGGUAGGUCGCCUAGCUGAGGACCGUCGAUGGAUUCGU [Exclusion - Arginine A (Freestyle 16)]", "MS2 coat protein", "nM", 18.4),
    ("AACCGAGGCUAUCCUCUACGACUAUGUGAUACCAGAAUAAUUUUAUUCCCUUGGCAGCAUGACAUGAGGAUCACCCAUGUCUCUU [SSTheo A #9]", "MS2 coat protein", "nM", 34),
    ("ACAUUUAACUGAAGGAGCGUGAUAUGUACAUGAGGAUCACCCAUGUCUUACAUGUGAUAUUCACAGGUAGGUCGCAGACUAAUGA [JR_ExcArginiB_Sub004]", "MS2 coat protein", "nM", 20.3),
    ("GGUCUCUGGAGCGAUACCAGCUUAAAUGUACUGGCCAGGUACAUGAGGAUCACCCAUGUAAGCCCUUGGCAGCGCUCCAGAGACC [#1 Exclusion - Theophylline B Attempt #13 (HarryS)]", "MS2 coat protein", "nM", 13.5),
    ("CCAUAUGUAACUGAUACCAGUGUACUGACAUGAGGAUCACCCAUGUUGGGUUUUGUUGUACACCCUUGGCAGCAGAAUCAUAUGG [AstrosExyTheB#17]", "MS2 coat protein", "nM", 53.9),
    ("UGUAUGGAAACAUGAGGAUCACCCAUGUGGCGAGGACCGGUACGGCCGCCACUCGAGCAGCAAGCGUGUAUGACGCUGCUGCAUG [SS-trypA-0]", "MS2 coat protein", "nM", 25.1),
    ("AUAUUUAACGGAAGGAGCGCGGAUAAUAAAGUGGGUAAACAUGAGGAUCACCCAUGUAAACCGCAGGUAGGUCGCCGAUAUAUAU [AstrosEXyARgB#7]", "MS2 coat protein", "nM", 41.4),
    ("GAUCGAUCAUAGUACGAUCGUUUUGUGGAAGGAGCGCAGAGGACUGCAGGUAGGUCGCCACAUGAGGAUCACCCAUGUCAGGAUU [XARG-A 24]", "MS2 coat protein", "nM", 32.8),
    ("AUCCUCUAGAAUGAUACCAGACCAAACAUGAGGAUCACCCAUGUAUCAGGCAAUUGUUACGUCCCUUGGCAGCAUGUAUGCCGAC [Theo B SS t3]", "MS2 coat protein", "nM", 20.2),
    ("ACAUGAGACAUGGAUACCAGCGACAUGAGGAUCACCCAUGUAUGAGGAUCACCCAUGUUAUGCCCUUGGCAGCCACAAACAUGAG [.PLMULLINP]", "MS2 coat protein", "nM", 15.2),
]
